Sourced from patent US20240131001A1

# Target Entity: PPK2A (Pseudomonas aeruginosa, UniProt Q9I6Z1)
# Sequence (Q9I6Z1 whole entry): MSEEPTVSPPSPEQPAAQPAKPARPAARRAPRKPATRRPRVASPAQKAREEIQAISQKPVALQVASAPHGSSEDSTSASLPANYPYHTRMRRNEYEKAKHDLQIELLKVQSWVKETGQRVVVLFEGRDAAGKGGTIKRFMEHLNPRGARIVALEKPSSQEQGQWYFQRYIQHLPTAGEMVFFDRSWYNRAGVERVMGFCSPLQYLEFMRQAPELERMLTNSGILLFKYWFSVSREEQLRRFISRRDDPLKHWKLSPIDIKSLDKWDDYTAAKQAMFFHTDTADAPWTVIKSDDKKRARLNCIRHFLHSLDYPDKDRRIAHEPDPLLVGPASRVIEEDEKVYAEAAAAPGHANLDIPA
# Protocol Text: PPK inhibitor screening assay, PPK2A
Entries and their measured pIC50 follow.
The value called pIC50 is obtained by taking minus log10 of the concentration in mol/L.

Recorded results for 2 compounds are shown here.
INSERT INTO results (compound, parameter_measured, endpoint_result) VALUES
  ('O=C1OC2(c3ccccc31)c1ccc(O)c(O)c1Oc1c2ccc(O)c1O [Compound 4]', 'pIC50', 4.80),
  ('O=c1oc2c(O)c(O)cc3c(=O)oc4c(O)c(O)cc1c4c23 [Compound 3]', 'pIC50', 4.30);

Now for the compound whose pIC50 we want.
Form field pIC50, entry O=S1(=O)OC2(c3ccccc31)c1ccc(O)c(O)c1Oc1c2ccc(O)c1O [Compound 5] : 4.62

* * *

Entries and their measured IC50 follow.
# Test system: PPK
# Protocol Text: PPK inhibitor screening assay (Table 1, PPK isoform not given)
# Type: biochemical, Pseudomonas aeruginosa
# Test Parameters: PPK isoform not stated; read-out: IC50 Values for PPK Inhibition
# Description: In order to evaluate the inhibitory effect of the compounds on PPKs, the PPK1, PPK2A, PPK2B and PPK2C were used respectively to test the above compounds using a kit described in an article (Liang Peng et al. & Ning Sun (2020) Discovery and antibacterial study of potential PPK1 inhibitors against uropathogenic E. coli, Journal of Enzyme Inhibition and Medicinal Chemistry, 35:1, 1224-1232).
Write the value in µM as a bare number.

Recorded results for 9 compounds are shown here.
INSERT INTO results (compound, value_unit, endpoint_result) VALUES
  ('O=c1oc2c(O)c(O)cc3c(=O)oc4c(O)c(O)cc1c4c23', 'µM', 9),
  ('O=c1c(O)c(-c2ccc(O)c(O)c2)oc2cc(O)cc(O)c12 [Compound G, reference compound]', 'µM', 177),
  ('O=C1OC2(c3ccccc31)c1ccc(O)c(O)c1Oc1c2ccc(O)c1O', 'µM', 17),
  ('O=c1cc(-c2cc(O)c(O)c(O)c2Br)oc2c(O)c(O)ccc12', 'µM', 6),
  ('O=S1(=O)OC2(c3ccccc31)c1cc(Br)c(O)c(O)c1Oc1c2cc(Br)c(O)c1O', 'µM', 7.59),
  ('O=c1oc2c(O)c(O)c(O)c3c(=O)oc4c(O)c(O)cc1c4c23', 'µM', 8),
  ('O=S1(=O)OC2(c3ccccc31)c1ccc(O)c(O)c1Oc1c2ccc(O)c1O', 'µM', 26.3),
  ('O=c1c(O)c(-c2cc(O)c(O)c(O)c2)oc2cc(O)cc(O)c12', 'µM', 39),
  ('O=c1oc2c(O)c(O)ccc2c2ccc(O)c(O)c12 [Compound B, reference compound]', 'µM', 150);

Now for the compound whose IC50 we want.
Form field IC50, entry "O=c1cc(-c2cc(O)c(O)c(O)c2-c2ccsc2)oc2c(O)c(O)ccc12" : 36

* * *

# Target Entity: PPK1 (Pseudomonas aeruginosa)
# Sequence (P0DP44 whole entry): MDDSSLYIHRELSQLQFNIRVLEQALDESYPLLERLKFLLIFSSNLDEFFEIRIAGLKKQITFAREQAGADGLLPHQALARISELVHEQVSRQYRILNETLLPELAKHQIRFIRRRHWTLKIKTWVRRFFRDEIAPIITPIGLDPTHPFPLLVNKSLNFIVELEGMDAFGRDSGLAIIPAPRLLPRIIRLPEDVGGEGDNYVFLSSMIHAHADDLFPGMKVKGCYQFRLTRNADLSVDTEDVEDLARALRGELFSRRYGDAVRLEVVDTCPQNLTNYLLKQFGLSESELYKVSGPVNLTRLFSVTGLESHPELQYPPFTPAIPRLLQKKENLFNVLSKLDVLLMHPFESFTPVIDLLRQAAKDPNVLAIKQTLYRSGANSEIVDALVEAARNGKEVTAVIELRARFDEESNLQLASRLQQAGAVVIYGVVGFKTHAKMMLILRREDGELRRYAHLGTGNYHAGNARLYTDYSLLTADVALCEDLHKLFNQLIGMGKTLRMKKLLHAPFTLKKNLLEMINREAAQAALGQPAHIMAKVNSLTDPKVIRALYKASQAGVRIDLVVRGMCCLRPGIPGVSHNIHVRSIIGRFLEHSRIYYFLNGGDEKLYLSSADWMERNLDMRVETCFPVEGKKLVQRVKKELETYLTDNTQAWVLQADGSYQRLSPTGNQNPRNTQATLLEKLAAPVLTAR
# Protocol Text: PPK inhibitor screening assay, PPK1
# Assay type: biochemical
# Test Parameters: read-out: IC50 PPK1
Parameter Measured: IC50 (µM)
Write the value in µM as a bare number.

Recorded results for 3 compounds are shown here.
INSERT INTO measurements (entry_smiles, parameter_measured, endpoint_result) VALUES
  ('O=C1OC2(c3ccccc31)c1ccc(O)c(O)c1Oc1c2ccc(O)c1O', 'IC50', 17),
  ('O=c1oc2c(O)c(O)cc3c(=O)oc4c(O)c(O)cc1c4c23', 'IC50', 20),
  ('O=c1oc2c(O)c(O)c(O)c3c(=O)oc4c(O)c(O)cc1c4c23', 'IC50', 20);

Now for the compound whose IC50 we want.
Form field IC50, entry "O=S1(=O)OC2(c3ccccc31)c1ccc(O)c(O)c1Oc1c2ccc(O)c1O" : 26

* * *

# System: PPK
# Protocol Text: PPK inhibitor screening assay (Table 1, PPK isoform not given)
# Type: biochemical, Pseudomonas aeruginosa
# Test Parameters: PPK isoform not stated; read-out: IC50 Values for PPK Inhibition
pIC50: −log10 of the molar value.
Parameter Measured: pIC50

INSERT INTO assay_data (compound, target_entity, parameter_measured, endpoint_result) VALUES
  ('O=C1OC2(c3ccc(O)cc3Oc3cc(O)ccc32)c2ccccc21 [D, reference compound]', 'PPK', 'pIC50', '< 3.70');

Form field pIC50, entry O=c1oc2cc(O)ccc2c2ccc(O)c(O)c12 [C, reference compound] : < 4.00

Form field pIC50, entry O=C(O)c1ccc2c(c1)C1(OC2=O)c2ccc(O)cc2Oc2cc(O)ccc21 [E, reference compound] : < 3.70
